test system: OVCAR-8 ovarian; assay: NCI tumour cell line growth inhibition, 48 h
Measurement Name: TGI (µM)
Please state the figure in µM; there is no need to write the unit.

Smiles Input	Unit Abbrev	TGI
CCN1CCN(c2ccc(Nc3ccnc4ccc5nn(C)nc5c34)cc2)CC1	µM	25.3
CC(=O)Oc1ccccc1C(=O)N=C1[Se]CCN1C(=O)c1ccccc1OC(C)=O	µM	2.7
Cc1sc2nc(NCCc3c[nH]c4ccc(Cl)cc34)[nH]c(=O)c2c1C	µM	5.69

Moving on to another compound below.
// query Which TGI value belongs to Cc1cc(C)cc(C(=N)c2ccccc2Cc2cccc3ccccc23)c1 ?
// result 34.1
